Target: Solute carrier organic anion transporter family member 1B1 (OATP1B1) (Homo sapiens)
Sequence (Q9Y6L6 whole entry): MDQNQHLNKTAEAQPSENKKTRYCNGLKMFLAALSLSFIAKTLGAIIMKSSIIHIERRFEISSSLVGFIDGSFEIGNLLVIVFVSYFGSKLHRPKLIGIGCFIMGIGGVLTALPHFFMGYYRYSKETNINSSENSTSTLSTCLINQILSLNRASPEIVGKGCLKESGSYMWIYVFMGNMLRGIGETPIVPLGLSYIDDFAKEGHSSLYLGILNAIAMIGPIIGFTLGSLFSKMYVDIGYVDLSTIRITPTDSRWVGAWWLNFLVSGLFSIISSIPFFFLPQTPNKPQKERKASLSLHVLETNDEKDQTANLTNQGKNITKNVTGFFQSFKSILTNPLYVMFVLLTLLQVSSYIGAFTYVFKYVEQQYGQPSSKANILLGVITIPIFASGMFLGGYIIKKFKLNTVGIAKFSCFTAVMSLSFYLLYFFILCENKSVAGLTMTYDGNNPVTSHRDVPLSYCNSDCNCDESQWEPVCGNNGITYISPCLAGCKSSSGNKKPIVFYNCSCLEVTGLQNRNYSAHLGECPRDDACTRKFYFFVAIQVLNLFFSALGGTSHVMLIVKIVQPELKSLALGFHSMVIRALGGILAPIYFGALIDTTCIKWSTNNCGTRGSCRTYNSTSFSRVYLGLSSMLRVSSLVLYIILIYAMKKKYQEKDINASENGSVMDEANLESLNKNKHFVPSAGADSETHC
Assay: TP_TRANSPORTER: uptake in Xenopus laevis oocytes
Type: functional, cell-based, Oocyte
Numbered stars: 1 amine (or outer) side, 2 acyl side, 3 side chain; on linkers, the order of the positions; unused ones are H or OH. Bridge positions count the residues as written; N and C are the ends. Square brackets hold non-standard residues; d marks the D form. Peptide text beside a SMILES is read from it. Adda = CO[C@@H](Cc1ccccc1)[C@@H](C)/C=C(C)/C=C/[C@H](N[*:1])[C@H](C)C(=O)[*:2]; dAsp(3S-Me) = C[C@H](C(=O)[*:3])[C@@H](N[*:1])C(=O)[*:2]; d(γGlu) = O=C(O)[C@@H](CCC(=O)[*:2])N[*:1]; NMeDha = C=C(NC)C(=O)O
outcome-measure: Km
State the value, then name its unit.

Q) Bench note: what Km did C=C1C(=O)N[C@H](C)C(=O)N[C@@H](CC(C)C)C(=O)N[C@@H](C(=O)O)[C@H](C)C(=O)N[C@@H](CCCNC(=N)N)C(=O)N[C@@H](/C=C/C(C)=C/[C@H](C)[C@H](Cc2ccccc2)OC)[C@H](C)C(=O)N[C@@H](C(=O)O)CCC(=O)N1C [MICROCYSTIN-LR] (R[Adda][d(γGlu)][NMeDha][dA]L[dAsp(3S-Me)]-OH; lactam N-7) show?
A) 12.4 µM
